Reference source for all entries: PubChem BioAssay AID651549

# assayProtocol: GAPDH and PEG-3 promoter luciferase suppression – cell-based, luminescence, set 2, counter-screen for PEG-3 promoter inhibitor project, dose response (AID 651549)
# particulars: HeLa PEG-Prom-luciferase or GAPDH-reporter, 6/24 h, PEG-3, run 1, 24 h
The source made the active and inactive calls.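 Rule for the calls: active = compounds blocking the PEG3 reporter with IC50 up to 10 µM at either incubation, yet sparing the GAPDH control reporter; inactive = the rest.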
Classes used: active, inactive

{"molecule": "CC(=O)OC1CC2(O)C3CCC4CC(O)CCC4(C)C3CCC2(C)C1C1=CC(=O)OC1 (stereo not given)", "qualitativeLabel": "active"}
{"molecule": "CC1CCN(c2nc3ccc(C(=O)O)cc3s2)CC1", "qualitativeLabel": "active"}
{"molecule": "NC(=O)c1cc([N+](=O)[O-])ccc1NCc1ccc(N)cc1", "qualitativeLabel": "active"}
{"molecule": "Cn1c(Cl)cnc1C1CC(=O)c2cc(Cl)ccc2O1 (stereo not given)", "qualitativeLabel": "inactive"}
{"molecule": "Cc1cc(C)c(C)c(S(=O)(=O)N2CCN(C(=O)c3cc(=O)[nH]c4ccccc34)CC2)c1C", "qualitativeLabel": "inactive"}
{"molecule": "CN1OC[C@@H]2CN(S(=O)(=O)c3cccc(C(F)(F)F)c3)[C@H](c3ccc(-c4cc5ccccc5o4)cc3)C[C@@H]21", "qualitativeLabel": "inactive"}
{"molecule": "Cc1cc(C(=O)Nc2cccc(C(=O)O)c2)oc1C", "qualitativeLabel": "inactive"}
{"molecule": "O=C(COc1ccc2c(c1)CCC2)Nc1ccccn1", "qualitativeLabel": "active"}
{"molecule": "C[C@]12CC[C@H]3C(CCC4(O)CC(O)CC[C@]34C=O)C1=CC[C@H]2c1ccc(=O)oc1 (stereo not given in full)", "qualitativeLabel": "active"}
{"molecule": "CC(=O)OC1CC[C@]2(C#N)[C@H]3CC[C@]4(C)[C@H](C5C=CC(=O)O5)CCC4(O)C3CCC2(O)C1 (stereo not given in full)", "qualitativeLabel": "inactive"}
{"molecule": "COC1CC(C)C(OC)c2cc(O)cc(c2O)NC(=O)C(C)=CC=CC(C)C(OC(N)=O)C(C)=CC(C)C1OC (stereo not given)", "qualitativeLabel": "inactive"}
{"molecule": "COc1ccc2[nH]c(=O)c(CN(Cc3cccnc3)S(=O)(=O)c3ccccc3F)cc2c1", "qualitativeLabel": "inactive"}
{"molecule": "O=C(Nc1ccccc1C(=O)Nc1nnc(C(F)(F)F)s1)c1ccccc1", "qualitativeLabel": "inactive"}
{"molecule": "CC(=O)OC1(C)CC(C)C(=O)C(C(O)CC2CC(=O)NC(=O)C2)C1 (stereo not given)", "qualitativeLabel": "active"}
{"molecule": "Cc1cccc(-n2cc(-c3ccccc3)c3c(N4CCOCC4)ncnc32)c1", "qualitativeLabel": "inactive"}
{"molecule": "NS(=O)(=O)c1ccc(CCNc2nn3c(-c4ccc(F)c(Cl)c4)cnc3s2)cc1", "qualitativeLabel": "active"}
{"molecule": "CC(CCc1ccccc1)NC(=O)COC(=O)c1ccc(S(C)(=O)=O)c([N+](=O)[O-])c1 (stereo not given)", "qualitativeLabel": "active"}
{"molecule": "Cc1cc(C)cc(NS(=O)(=O)c2ccc3[nH]cc(C(=O)NCc4ccco4)c(=O)c3c2)c1", "qualitativeLabel": "active"}
{"molecule": "Cc1ccc(S(=O)(=O)NC(CC(C)C)C(=O)NCC(c2ccco2)N2CCCCC2)cc1 (stereo not given)", "qualitativeLabel": "inactive"}
{"molecule": "CCC(C)(C)c1ccc(Oc2ccc(N)cc2)cc1", "qualitativeLabel": "active"}
